# ASSAY NOTES: qHTS for Inhibitors of the Functional Ribonucleoprotein Complex (vRNP) of Lymphocytic Choriomeningitis Arenaviruses (LCMV): Viability assay - alamar blue signal for LCMV Primary Screen (AID 1347085); further: nearly all actives have a fitted effect of over 80% in size
# CONDITION PARAMETERS: alamar blue viability counter-screen, LCMV vRNP screen cells; series mostly up to 57.5 µM
Results filed as inconclusive are left out. Activity calls are given as the source filed them. The call rests on the fitted dose curve; tested in HEK293 reporter line.
Classes used: active, inactive

• C[N+](C)(C)CCCCCCCCCC[N+](C)(C)C = inactive
• Oc1c(Br)cc(Br)cc1Br = inactive
• CCN1CCCC1CNC(=O)C(O)(c1ccccc1)c1ccccc1 (stereo unspecified) = inactive
• O=C(O)Cc1ccc2c(c1)C(=O)c1ccccc1CO2 = inactive
• CC(N)C(=O)OC(C)(C)Cc1ccc(Cl)cc1 (stereo unspecified) = inactive
• C[C@@]12CCC[C@H]1[C@@H]1CC[C@H]3C[C@@H](O)CC[C@]3(C)[C@H]1CC2 = inactive
• C[C@@H]1C[C@@H]([C@H](O)CC2CC(=O)NC(=O)C2)C(=O)[C@@H](C)C1 = active
• CN1[C@@H]2CC[C@H]1CC(OC(=O)c1c[nH]c3ccccc13)C2 (stereo partly specified) = inactive
• CC1=C(C)C(=O)C(CCCCC#CCCCC#CCO)=C(C)C1=O = inactive
• Cc1cc(O)c(C(C)C)cc1Cl = inactive
• COc1cc2c(cc1OC)-c1cc(=Nc3c(C)cc(C)cc3C)n(C)c(=O)n1CC2 = inactive
